target: Coagulation factor X (Homo sapiens); assay: Inhibition of human F10a using S-2765 as substrate after 45 mins by spectra max analysis
Sequence (P00742 41-179 limits assumed): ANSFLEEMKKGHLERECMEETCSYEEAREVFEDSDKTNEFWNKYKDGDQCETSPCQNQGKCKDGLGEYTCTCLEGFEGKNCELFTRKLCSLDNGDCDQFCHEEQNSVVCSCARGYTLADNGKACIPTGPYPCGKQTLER
Sequence (P00742 235-488 limits assumed): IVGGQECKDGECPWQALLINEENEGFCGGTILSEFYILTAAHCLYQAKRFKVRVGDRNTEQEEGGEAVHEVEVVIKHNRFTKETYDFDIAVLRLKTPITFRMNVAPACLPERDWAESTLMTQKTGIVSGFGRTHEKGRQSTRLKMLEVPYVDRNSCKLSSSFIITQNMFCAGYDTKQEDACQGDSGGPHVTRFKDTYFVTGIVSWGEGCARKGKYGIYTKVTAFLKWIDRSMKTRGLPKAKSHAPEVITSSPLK
MEASURED_PARAMETER: pIC50
One number for each entry, as −log10 of the molar value.

- CN(C)Cc1cccn1-c1ccc(N2C[C@H](CNC(=O)c3ccc(Cl)s3)OC2=O)cc1: 8.14
- CN(C)Cc1cccn1-c1ccc(N2C[C@H](CNC(=O)c3ccc(Cl)s3)OC2=O)cc1F: 8.18
- CCN(CC)Cc1cccn1-c1ccc(N2C[C@H](CNC(=O)c3ccc(Cl)s3)OC2=O)cc1: 8.70

Let us move to another entry and its pIC50.
Recorded pIC50 for CCN(CC)Cc1csc(-c2ccc(N3C[C@H](CNC(=O)c4ccc(Cl)s4)OC3=O)cc2)n1 with Coagulation factor X (Homo sapiens), please?
8.02

This collection of values is drawn from ChEMBL document CHEMBL3414546.
